I'd be grateful if you could share measured GI50 for these entries.
System: M14 melanoma
TEST NAME: NCI tumour cell line growth inhibition, 48 h

**Query** Would you mind telling me what GI50 value was observed for COc1ccc2c(c1)N(Cc1ccc(Cl)cc1)CCC2N1CCCC1=O (stereo unspecified) ?
**Result** 4420 nM

**Query** Please look up its GI50: Cc1ccc([P+](Cc2ccccc2)(c2ccccc2)c2ccccc2)cc1
**Result** 2780 nM

**Query** // query GI50 value for entry CC1(C)CC(=O)C=C(/C=C/Sc2c(Cl)c(Cl)nc(Cl)c2Cl)C1
**Result** 11700 nM

**Query** Can you share its GI50? I mean this compound: O=C1C(=c2ccc(=C3C(=O)c4ccc([N+](=O)[O-])cc4[N+]3=O)cc2)N([O-])c2cc([N+](=O)[O-])ccc21
**Result** > 100000 nM

Each compound below has a recorded value; state its GI50.
1. O=C1Nc2ccccc2/C1=C\c1c(-c2ccccc2)nc2sccn12
2. C[C@H](c1ccc(F)cc1CCCC(=O)O)N(c1cc(F)ccc1F)S(=O)(=O)c1ccc(Cl)cc1
3. CN1CC=C(c2cc(NC(=O)Nc3ccc(Oc4ccnc(NC(=O)C5CC5)c4)c(F)c3)cc(C(F)(F)F)c2)CC1
4. C/C(CCC(=O)O)=N/Nc1ccc([N+](=O)[O-])cc1
5. O=C(c1ccccc1)C(Cl)C(Cl)c1ccccc1 (stereo unspecified)

**Result**
1. 1980 nM
2. 22600 nM
3. 524 nM
4. 1530 nM
5. 2120 nM

I need GI50 for every entry listed below, if you could help.
1. CCCCCCC1N=C(N)N=C(N)N1c1cccc(Cl)c1 (stereo unspecified)
2. CC(c1cc(Cl)ccc1O)c1cc(Cl)ccc1O

**Result**
1. 668 nM
2. 2970 nM
